- targetSystem: Neu5Ac(a2-3)Gal(b1-4)[Fuc(a1-3)]GlcNAc(b1-3)Gal
- protocolNotes: glycan array binding signal (z-score within array); higher = stronger binding
- testSettings: glycan notation: IUPAC condensed, linker removed
About 410 targets per protein were measured; listed, in parts, are those with the strongest signals and a random draw of the rest.
reportedProperty: glycan array binding signal (z-score)

Reference set (3 entries):
>>> testvalue("PFL (Pseudomonas fluorescens) (protein) MSKYAVANQWGGSSAPWHPGGTWVLGARDNQNVVAIEIKSGDGGKSFTGTMTYAGEGPIGFKAQRTGQNQYNVENQWGGNDAPWHPGGKWVIGGRDNQNVIALSVTSSDGGKNLSGTNTYANEGPIGFRGQIE")
-0.117
>>> testvalue("MD-2 (Homo sapiens) (protein) MLPFLFFSTLFSSIFTEAQKQYWVCNSSDASISYTYCDKMQYPISINVNPCIELKGSKGLLHIFYIPRRDLKQLYFNLYITVNTMNLPKRKEVICRGSDDDYSFCRALKGETVNTTISFSFKGIKFSKGKYKCVVEAISGSPEEMLFCLEFVILHQPNSN")
-0.504
>>> testvalue("DCIR (Homo sapiens), Q9UMR7 (protein) MTSEITYAEVRFKNEFKSSGINTASSAASKERTAPHKSNTGFPKLLCASLLIFFLLLAISFFIAFVIFFQKYSQLLEKKTTKELVHTTLECVKKNMPVEETAWSCCPKNWKSFSSNCYFISTESASWQDSEKDCARMEAHLLVINTQEEQDFIFQNLQEESAYFVGLSDPEGQRHWQWVDQTPYNESSTFWHPREPSDPNERCVVLNFRKSPKRWGWNDVNCLGPQRSVCEMMKIHL")
-0.071

We next turn to a different binder, shown below.
For the binder KISKRILTGKK [NK11 (Sus scrofa)] , what glycan array binding signal (z-score) is on record? 0.515
